Below, each entry is listed with its recorded Kd.
- assay.system: T1, human IFNAR-1 protein (form not stated) (human, UniProt P17181 28-436, limits assumed)
- T1 construct: bispecific ELISA
- T1 sequence (looked up): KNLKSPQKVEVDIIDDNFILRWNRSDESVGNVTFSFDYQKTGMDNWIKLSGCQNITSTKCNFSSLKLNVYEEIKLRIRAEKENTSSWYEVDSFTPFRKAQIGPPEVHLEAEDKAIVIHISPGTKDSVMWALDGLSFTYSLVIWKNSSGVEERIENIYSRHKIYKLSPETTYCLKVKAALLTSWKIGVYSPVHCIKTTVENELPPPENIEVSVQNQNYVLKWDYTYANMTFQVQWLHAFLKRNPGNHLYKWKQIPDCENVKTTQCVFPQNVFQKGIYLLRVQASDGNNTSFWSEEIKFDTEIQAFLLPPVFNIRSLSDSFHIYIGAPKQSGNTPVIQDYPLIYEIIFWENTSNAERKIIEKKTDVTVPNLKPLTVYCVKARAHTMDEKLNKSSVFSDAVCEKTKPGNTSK
- run.description: affinity ranking of expressed humanized 8G11 IgGs (method not named)
Please make sure the unit comes right after the number.

Recorded results for 5 binders are shown here.
**Q:** # query: Kd of entry 8G11-H2L1 (antibody, V domains shown, Humanized IgG expressed in HEK293; also called VH2 + VL1 (8G11)) VH: QVQLVQSGAEVVKPGASVKVSCKGSGFNIKDYYMHWVRQAPGQGLEWIGRIDPEDAETKYAPKFQGRVTMTADTSTSTVYMELSSLRSEDTAVYYCARGGNFYVMDYWGQGTLVTVSS VL: DIQLTQSPSFLSASVGDRVTITCKASQNVGTNVVWYQQKPGKAPKLLIYSASYRVSGVPSRFSGSGSGTEFTLTISSLQPEDFATYYCQQKNNYPYTFGQGTKLEIK
**A:** 0.439 nM

**Q:** # query: Kd of entry 8G11 humanized VH1 + VL3 (antibody, V domains shown, Humanized IgG expressed in HEK293; also called VH1 + VL3 (8G11)) VH: QVQLVQSGAEVKKPGASVKVSCKASGFNIKDYYMHWVRQAPGQGLEWMGRIDPEDAETKYAPKFQGRVTMTRDTSTSTVYMELSSLRSEDTAVYYCARGGNFYVMDYWGQGTLVTVSS VL: DIQLTQSPSFLSTSVGDRVTITCKASQNVGTNVVWYQQKPGKSPKVLIYSASYRVSGVPSRFSGSGSGTEFTLIISSVQPEDFATYFCQQKNNYPYTFGQGTKLEIK
**A:** 0.865 nM

**Q:** # query: Kd of entry 8G11 humanized VH3 + VL4 (antibody, V domains shown, Humanized IgG expressed in HEK293; also called VH3 + VL4 (8G11)) VH: QVQLVQSGAEVVKPGASVKVSCKGSGFNIKDYYMHWVKQAPGQGLEWIGRIDPEDAETKYAPKFQGRVTITADTSTSTVYLELSSLRSEDTAVYYCARGGNFYVMDYWGQGTLVTVSS VL: DIQMTQSPSFLSTSVGDRVTVTCKASQNVGTNVVWYQQKPGKSPKVLIYSASYRVSGVPSRFSGSGSGTEFTLIISSVQPEDFATYFCQQKNNYPYTFGQGTKLEIK
**A:** 0.401 nM

**Q:** # query: Kd of entry 8G11 humanized VH2 + VL3 (antibody, V domains shown, Humanized IgG expressed in HEK293; also called VH2 + VL3 (8G11)) VH: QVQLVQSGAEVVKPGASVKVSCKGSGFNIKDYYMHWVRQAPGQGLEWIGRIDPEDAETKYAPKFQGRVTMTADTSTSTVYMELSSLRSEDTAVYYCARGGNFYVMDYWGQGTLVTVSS VL: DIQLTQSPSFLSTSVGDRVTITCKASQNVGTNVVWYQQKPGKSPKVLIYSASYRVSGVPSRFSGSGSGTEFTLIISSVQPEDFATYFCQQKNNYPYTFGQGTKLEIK
**A:** 0.364 nM

**Q:** # query: Kd of entry 8G11 humanized VH3 + VL2 (antibody, V domains shown, Humanized IgG expressed in HEK293; also called VH3 + VL2 (8G11)) VH: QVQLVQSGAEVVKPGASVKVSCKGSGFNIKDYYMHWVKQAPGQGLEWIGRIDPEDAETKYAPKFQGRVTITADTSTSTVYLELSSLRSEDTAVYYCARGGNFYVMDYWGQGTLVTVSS VL: DIQLTQSPSFLSTSVGDRVTITCKASQNVGTNVVWYQQKPGKSPKVLIYSASYRVSGVPSRFSGSGSGTEFTLIISSLQPEDFATYYCQQKNNYPYTFGQGTKLEIK
**A:** 0.389 nM

# evaluate next
**Q:** # query: Kd of entry 8G11 humanized VH1 + VL2 (antibody, V domains shown, Humanized IgG expressed in HEK293; also called VH1 + VL2 (8G11)) VH: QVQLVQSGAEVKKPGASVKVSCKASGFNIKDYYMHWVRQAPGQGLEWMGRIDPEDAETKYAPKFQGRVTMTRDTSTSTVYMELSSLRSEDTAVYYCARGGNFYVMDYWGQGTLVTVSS VL: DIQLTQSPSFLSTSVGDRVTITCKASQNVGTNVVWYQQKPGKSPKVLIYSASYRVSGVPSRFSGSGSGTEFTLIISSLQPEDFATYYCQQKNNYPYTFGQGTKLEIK
**A:** 0.765 nM
